# activity, negative = inhibition listing for each entry below
Assay: Stat Signaling Pathway (AID 446);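 further: ME-180 cervical cancer cells given 40 pM IL-6 alongside compound; SIE-controlled beta-lactamase reporter measured as 460/530 nm FRET emission ratio; on the % scale 0 is the no-effect control and ±100 the full control effect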
Details: ME-180 (cervical carcinoma) SIE beta-lactamase reporter, IL-6 stimulated, 5 h; at 7.69 µM (top of the series) unless noted
Inconclusive results are not listed. Activity calls are given as the source filed them. The call rests on the fitted dose curve; in most records, active means well fitted curve in either direction with a large enough effect (not every such curve was filed as active); inconclusive means small, poorly fitted or top-dose-only effect, or another doubt; inactive means flat fitted curve, though single readings scatter.

Please review the following examples before continuing.
> print(dat)
                        structure.as.smiles                     readout.kind             result
1  O=S(=O)(O)c1cc(N=Nc2cccc3ccccc23)c(O)c2ncccc12  activity, negative = inhibition  0.477% (inactive)
2                CC1(CCC(=O)OC2CCCCC2)OCCO1  activity, negative = inhibition   4.55% (inactive)
3  CC(C)(C)c1ccc(O)c(CN(Cc2cc(C(C)(C)C)ccc2O)c2ccccc2)c1  activity, negative = inhibition   2.48% (inactive)
4   CN1CCN(c2ccncc2S(=O)(=O)N2CCN(C)CC2)CC1  activity, negative = inhibition   8.15% (inactive)
5  Nc1ccn([C@H]2O[C@@H](COP(=O)(O)O)[C@@H](O)[C@H]2O)c(=O)n1  activity, negative = inhibition   4.03% (inactive)
6                 Cc1ccc(C(N)=Nc2ccccc2)cc1  activity, negative = inhibition  -4.47% (inactive)

**Q:** What value of activity, negative = inhibition has been recorded for this entry: Nc1ncnc2c1nc(Br)n2[C@@H]1O[C@H]2COP(=O)(O)O[C@@H]2[C@H]1O
**A:** 4.8% [at 38 µM] (inactive)

---

Target: Vitamin D3 receptor (Homo sapiens) (UniProt P11473)
Sequence (P11473 whole entry, looked up): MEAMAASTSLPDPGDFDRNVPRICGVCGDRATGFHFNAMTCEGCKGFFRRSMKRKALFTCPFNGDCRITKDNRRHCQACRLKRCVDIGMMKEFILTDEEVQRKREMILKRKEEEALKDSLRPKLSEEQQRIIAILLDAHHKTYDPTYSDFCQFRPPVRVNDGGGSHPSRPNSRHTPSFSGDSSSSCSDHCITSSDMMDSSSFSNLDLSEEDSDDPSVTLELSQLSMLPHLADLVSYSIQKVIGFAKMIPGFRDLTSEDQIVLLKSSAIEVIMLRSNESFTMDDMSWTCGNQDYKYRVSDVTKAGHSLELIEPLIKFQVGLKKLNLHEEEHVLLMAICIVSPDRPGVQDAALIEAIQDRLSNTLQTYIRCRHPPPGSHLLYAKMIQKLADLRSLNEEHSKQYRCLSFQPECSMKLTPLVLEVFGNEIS
Test: qHTS assay for small molecule agonists of vitamin D receptor signaling (AID 588543);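 further: 0% = DMSO basal and 100% = reference agonist control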
Conditions: HEK293T VDR-UAS-bla, beta-lactamase ratio, 16 h; series mostly up to 76.8 µM
Records with an inconclusive call do not appear. The source made the active and inactive calls. Calls follow the shape of the full dose curve.
Outcome (select one): Y = active, N = inactive

Example cases with answers are listed next.
> print(dat)
                   compound  classification
1        CCN(CC)c1ccc(N)cc1               N
2          Oc1ccc2c(c1)OCO2               N
3  N[C@@H](Cc1ccccc1)C(=O)O               N
4   NC(=O)Nc1nc2ccccc2[nH]1               N

**Q:** Test call for this compound, please: O=c1[nH]ncc2ccccc12
**A:** N

**Q:** Next entry: CN(C)c1ccc(Cc2ccc(N(C)C)cc2)cc1
**A:** N

---

Molecular target: Cytochrome P450 2C9 (Homo sapiens)
Assay: qHTS Assay for Inhibitors and Substrates of Cytochrome P450 2C9 (AID 883); further: nearly all actives have a fitted effect of over 60% in size; further: potency means the concentration at half of the fitted maximal effect
Details: recombinant CYP2C9, luciferin-H luminescence, 60 min; series mostly up to 11.4 µM
Inconclusive results are not listed. The source made the active and inactive calls. Calls follow the shape of the dose curve; as a rule, active = well fitted inhibition curve with a large enough effect; inconclusive = small, poorly fitted or top-dose-only effect; inactive = no such curve, though single readings can be large or run the other way.
readout-kind: Potency

> print(dat)
                        structure.as.smiles            result
1  CC(=O)OCC(=O)[C@@]1(O)CC[C@@H]2[C@@H]3CCC4=CC(=O)CC[C@@]4(C)[C@H]3C(=O)C[C@]21C          inactive
2  FC(F)(F)c1nc2nc(Cl)c(Cl)nc2n1CCCN1CCOCC1  2.51 µM (active)
3  CCN(CC)[C@@H](C)C(=O)N1c2ccccc2Sc2ccccc21          inactive
